# TEST_SYSTEM: Dimer of Gag-Pol polyprotein [514-612] (Human immunodeficiency virus 2, UniProt P04584)
# Construct: 514-612
# Sequence (P04584 514-612): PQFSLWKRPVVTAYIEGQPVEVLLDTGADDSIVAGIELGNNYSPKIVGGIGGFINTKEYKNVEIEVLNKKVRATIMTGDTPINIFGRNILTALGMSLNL
# TEST_DETAILS: Protease Inhibition Assay
MEASURED_ATTRIBUTE: Ki (µM)
Dear colleague, please return just the value in µM, with no unit written.

# get_value(readout='Ki', item= CCC(Cc1ccccc1)c1cc(O)c(C(CC)c2ccccc2)c(=O)o1 (stereo unspecified) )
0.032
